Test system: RSL3
assay_comment: IC50 (RSL3), Table 1
Type: cell-based
Known IC50 of a selection of compounds
Write the number in nM without appending the unit.

INSERT INTO measurements (compound, metric, quantitative_readout) VALUES
  ('CCCCC(=O)c1cc2c(c(NC3CCCC3)n1)NCCC2', 'IC50', 8),
  ('COc1ccc(-c2ccc(NC3COC3)c(NC3CCCC3)n2)cc1', 'IC50', 3),
  ('CC(C)(C)Nc1ccc(-c2ccncc2)nc1NC1CCCC1', 'IC50', 5),
  ('CCC(C)Nc1ccc(-c2cncnc2)nc1NC1CCCC1 (centres unmarked)', 'IC50', 7),
  ('CCC(C)Nc1ccc(-c2ccc(OC)cc2)nc1NC1CCCC1 (centres unmarked)', 'IC50', 8),
  ('Cc1ccc(-c2ccc(NC(C)(C)C)c(NC3CCCC3)n2)cc1', 'IC50', 7),
  ('Cc1ccc(-c2nc3c(c(NC4CCCC4)n2)NCCC3)cc1', 'IC50', 6),
  ('CCCCC(O)c1cc2c(c(NC(C)(C)C)n1)NCC(C(F)(F)F)C2 (centres unmarked)', 'IC50', 40),
  ('CCC(C)Nc1ccc(-c2ccc(C)cc2)nc1NC1CCCC1 (centres unmarked)', 'IC50', 7),
  ('CCC/C=C/c1nc2c(c(NC3CCCC3)n1)NCCC2', 'IC50', 40);

Task: Input CC1(Nc2nc(-c3ccc(F)cc3)ccc2NC2CCC2)CCOC1 (centres unmarked) , output reported IC50.
Output: 3

Task: Input CCC(C)Nc1ccc(-c2ccncc2)nc1NC(C)(C)C (centres unmarked) , output reported IC50.
Output: 1

* * *

System: RSL3
assay_comment: IC50 (RSL3), Table 1
Format: cell-based
Known IC50 of a selection of molecules
Write the number in nM without appending the unit.

Answered cases to consult:
INSERT INTO results (molecule, system_under_test, metric, quantitative_readout) VALUES
  ('CCC(C)Nc1ccc(-c2cccnc2)nc1NC1CCCC1 (stereo not drawn) [Compound H-74]', 'RSL3', 'IC50', 5),
  ('CC1(Nc2nc(-c3ccc(F)cc3)ccc2NC2CCOCC2)CCOC1 (stereo not drawn) [Compound N-53]', 'RSL3', 'IC50', 1),
  ('Cc1ccc(-c2ccc(NC3COC3)c(NC3CCCC3)n2)cc1 [Compound H-81]', 'RSL3', 'IC50', 5);

Task: Input CCC(C)Nc1ccc(-c2ccc(C)cc2)nc1NC(C)(C)C [Compound L-02] , output reported IC50.
Output: 5

Task: Input CCCCCc1ccc(NC(C)CC)c(NC2CCCC2)n1 (stereo not drawn) [Compound H-72] , output reported IC50.
Output: 6

Task: Input CCCCCc1nc(NC2CCCC2)c2c(n1)SCCN2 [Compound B-601] , output reported IC50.
Output: 3

Task: Input CCCCC(OC)c1cc2c(c(Nc3ccccn3)c1)NCCC2 (stereo not drawn) [Compound B-397] , output reported IC50.
Output: 70

Task: Input CCCCCc1nc(NC2CCCC2)c2c(n1)OCCN2 [Compound B-711] , output reported IC50.
Output: 41

Task: Input CCC(C)Nc1ccc(-c2ccncc2)nc1NC1CCCC1 (stereo not drawn) [Compound H-76] , output reported IC50.
Output: 6

* * *

Test system: RSL3
assay_comment: IC50 (RSL3), Table 1
Assay type: cell-based
metric: IC50

Answered cases to consult:
INSERT INTO assay_data (structure_string, result) VALUES
  ('CC(C)=Cc1nc(C)nc(NC2CCCC2)c1N', '> 625 nM'),
  ('CCCCCc1nc2c(c(NC3CCCC3)n1)NC(C)(C)CC2', '> 3000 nM'),
  ('CCOC(=O)c1cc2c(c(C(=O)C(F)(F)F)c1)NC(C)(C)C=C2', '> 3000 nM'),
  ('CCC/C=C/c1nc(NC2CCCC2)c2c(n1)SCC(=O)N2', '≥ 3000 nM'),
  ('CCOC(=O)c1cc(N)c2c(c1)OCCN2', '> 1000 nM'),
  ('CCCCC(=O)c1cc2c(c(OC3CCCC3)c1)NCCC2', '> 3000 nM');

Task: Input CON(C)C(=O)c1ccc2c(c1)C=CC(C)(C)N2 , output reported IC50.
Output: > 3000 nM

Task: Input CCCCC(=O)c1cc2c(c(-c3ccncc3)c1)NCCC2 , output reported IC50.
Output: > 3000 nM

Origin of the recorded values: patent US20230172940A1
